assay: Stability of the compound assessed as Streptomyces griseus pronase-mediated degradation by measuring compound remaining at 160 uM after 60 mins by HPLC analysis; assay type: ADME; details: read-out: Stability
observed_property: remaining at 1 h, 160 µM (%)
// note: answer is a bare numeric in %

State the recorded remaining at 1 h, 160 µM for this entry: "CNC(=S)NCCCC[C@H](NC(=O)[C@H](CCCCNC(C)=O)NC(C)=O)C(=O)N[C@@H](CCCCNC(C)=O)C(N)=O"
88

###

target: UniProt:Q9NXA8
Sequence (Q9NXA8 whole entry): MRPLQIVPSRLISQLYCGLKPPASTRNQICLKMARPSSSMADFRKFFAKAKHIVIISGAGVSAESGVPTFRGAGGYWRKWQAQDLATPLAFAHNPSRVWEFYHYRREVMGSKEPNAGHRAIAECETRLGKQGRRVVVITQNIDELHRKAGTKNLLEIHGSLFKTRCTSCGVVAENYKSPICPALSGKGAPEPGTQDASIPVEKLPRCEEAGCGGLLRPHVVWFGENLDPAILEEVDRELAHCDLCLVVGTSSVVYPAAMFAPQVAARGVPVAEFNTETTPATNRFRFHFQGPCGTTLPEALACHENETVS
observed_property: pIC50
Conceptually, pIC50 converts a concentration in mol/L into minus its log10.

Quick one: pIC50 of "CC(=O)NCCCC[C@H](NC(=O)[C@H](CCCCNC(=S)NCCC(=O)O)NC(=O)[C@H](CCCCNC(C)=O)NC(C)=O)C(N)=O" ?
5.30

###

Below are molecules with their pIC50 as measured on NAD-dependent protein deacetylase sirtuin-2 (Homo sapiens, UniProt Q8IXJ6).
Sequence (Q8IXJ6 whole entry): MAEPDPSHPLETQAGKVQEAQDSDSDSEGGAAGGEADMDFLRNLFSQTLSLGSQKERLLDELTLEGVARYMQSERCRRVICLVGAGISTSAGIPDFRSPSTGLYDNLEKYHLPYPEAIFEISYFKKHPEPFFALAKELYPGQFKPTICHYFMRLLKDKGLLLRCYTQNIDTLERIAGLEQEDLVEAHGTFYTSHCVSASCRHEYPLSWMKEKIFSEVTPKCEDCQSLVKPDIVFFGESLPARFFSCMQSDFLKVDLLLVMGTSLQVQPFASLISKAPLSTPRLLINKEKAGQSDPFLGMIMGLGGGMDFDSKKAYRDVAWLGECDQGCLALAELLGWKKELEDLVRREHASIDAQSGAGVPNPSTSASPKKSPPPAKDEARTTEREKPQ
Please keep in mind that pIC50 is minus log10 of the molar concentration; only the number is needed.

[
  {
    "item_smiles": "CNC(=S)NCCCC[C@H](NC(=O)[C@H](CCCCNC(C)=O)NC(C)=O)C(=O)N[C@@H](CCCCNC(C)=O)C(N)=O",
    "pIC50": 5.78
  }
]

Form field - read-out: pIC50; system: NAD-dependent protein deacetylase sirtuin-2 (Homo sapiens, UniProt Q8IXJ6); submitted item: "CC(=O)NCCCC[C@H](NC(=O)[C@H](CCCCNC(N)=S)NC(=O)[C@H](CCCCNC(C)=O)NC(C)=O)C(N)=O"
4.52
